Cited source for all entries: patent US20110021547A1

Assay procedure: Particle size distribution by laser diffraction (Malvern Master Sizer 2000)
Assay type: physicochemical
molecules and their reported Particle Size Distribution d(0.1)
Please respond with the number in microns and leave the unit unwritten.

# count of solved cases: 3
> print(dat)
                                   molecule                    outcome.measure  result.units  numeric.result
1  COc1ccccc1Oc1c(NS(=O)(=O)c2ccc(C(C)(C)C)cc2)nc(-c2ncccn2)nc1OCCO [Example 7, Bosentan]  Particle Size Distribution d(0.1)       microns           13.39
2  COc1ccccc1Oc1c(NS(=O)(=O)c2ccc(C(C)(C)C)cc2)nc(-c2ncccn2)nc1OCCO [Example 9E, Bosentan]  Particle Size Distribution d(0.1)       microns           17.03
3  COc1ccccc1Oc1c(NS(=O)(=O)c2ccc(C(C)(C)C)cc2)nc(-c2ncccn2)nc1OCCO [Example 9C, Bosentan]  Particle Size Distribution d(0.1)       microns            7.89

Recorded Particle Size Distribution d(0.1) for COc1ccccc1Oc1c(NS(=O)(=O)c2ccc(C(C)(C)C)cc2)nc(-c2ncccn2)nc1OCCO [Example 9B, Bosentan] , please? 11.76

Query (molecule): COc1ccccc1Oc1c(NS(=O)(=O)c2ccc(C(C)(C)C)cc2)nc(-c2ncccn2)nc1OCCO [Example 9D, Bosentan] ; field requested: Particle Size Distribution d(0.1) 14.85
